- System Tested: SOS1 and KRAS G12C (Homo sapiens (Human), UniProt Q07889)
- Sequence (Q07889 564-1049, stated change not applied): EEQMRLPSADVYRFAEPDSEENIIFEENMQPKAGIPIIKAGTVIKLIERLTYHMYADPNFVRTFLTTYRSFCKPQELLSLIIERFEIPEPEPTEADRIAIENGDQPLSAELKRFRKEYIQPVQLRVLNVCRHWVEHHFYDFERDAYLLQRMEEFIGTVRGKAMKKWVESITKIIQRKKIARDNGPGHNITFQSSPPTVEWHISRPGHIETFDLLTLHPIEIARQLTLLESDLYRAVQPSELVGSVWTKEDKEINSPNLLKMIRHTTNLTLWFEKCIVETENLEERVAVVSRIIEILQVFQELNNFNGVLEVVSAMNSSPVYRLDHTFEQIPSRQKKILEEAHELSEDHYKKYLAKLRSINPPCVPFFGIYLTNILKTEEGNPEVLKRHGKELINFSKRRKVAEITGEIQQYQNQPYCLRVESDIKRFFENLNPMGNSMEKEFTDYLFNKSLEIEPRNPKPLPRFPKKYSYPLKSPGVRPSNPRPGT
- Procedure Summary: KRAS::SOS1 AlphaScreen binding assay (KRAS G12C)
- Run Parameters: average of at least two measurements
Field: IC50. Provide a value for each of the compounds that follow.
One number for each entry, in nM.

// known answers, use as guide
[
  {
    "Compound": "C[C@@H](NC(=O)c1cc(N2CCC(NC3COCC3O)CC2)c2ncnn2c1)c1cccc(C(F)(F)F)c1F (single isomer, unassigned) [Example cis-E41b]",
    "Unit Abbreviation": "nM",
    "IC50": 41
  },
  {
    "Compound": "C[C@@H](NC(=O)c1cc([C@]2(O)CC[C@@H](N3CC[C@@H](F)C3)CC2)c2ncnn2c1)c1cccc(C(F)F)c1F",
    "Unit Abbreviation": "nM",
    "IC50": 90
  },
  {
    "Compound": "C[C@@H](NC(=O)c1cc(N2CCC(NC3COCC3O)CC2)c2ncnn2c1)c1cccc(C(F)F)c1F (single isomer, unassigned) [Example cis-E16b]",
    "Unit Abbreviation": "nM",
    "IC50": 26
  }
]

Give one value of IC50 per listed compound.
1. C[C@@H](NC(=O)c1cc(N2CCC3(CCNC3)CC2)c2ncnn2c1)c1cccc(C(F)(F)F)c1F
2. C[C@@H](NC(=O)c1cc(N2CCC(N(C)CC3(O)CC3)CC2)c2ncnn2c1)c1cccc(C(F)F)c1F
3. C[C@@H](NC(=O)c1cc(N2CCC(NC3COCC3O)CC2)c2ncnn2c1)c1cccc(C(F)F)c1F (single isomer, unassigned) [Example cis-E16a]

**Result**
[28, 52, 45]

---

Field: inhibition at 30 min. Provide a value for each of the compounds that follow.
- System Tested: CYP3A4 (Homo sapiens (Human))
- Sequence (P08684 whole entry): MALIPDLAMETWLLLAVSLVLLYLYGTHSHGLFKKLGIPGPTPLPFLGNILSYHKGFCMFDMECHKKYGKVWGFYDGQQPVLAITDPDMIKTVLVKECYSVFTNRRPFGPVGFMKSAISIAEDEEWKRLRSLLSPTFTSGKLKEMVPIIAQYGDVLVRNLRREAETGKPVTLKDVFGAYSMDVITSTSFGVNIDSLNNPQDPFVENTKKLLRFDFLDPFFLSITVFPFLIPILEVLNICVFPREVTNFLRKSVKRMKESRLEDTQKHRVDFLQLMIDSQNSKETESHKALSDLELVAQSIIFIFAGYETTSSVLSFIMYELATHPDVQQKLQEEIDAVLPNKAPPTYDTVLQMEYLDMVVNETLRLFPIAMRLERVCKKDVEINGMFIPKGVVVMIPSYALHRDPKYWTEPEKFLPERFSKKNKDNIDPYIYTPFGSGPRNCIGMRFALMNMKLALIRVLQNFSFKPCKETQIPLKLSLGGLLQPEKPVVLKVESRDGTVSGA
- Procedure Summary: Mechanism-based inhibition of CYP3A4 assay (MBI 3A4)
- Assay type: in vitro ADME
- Run Parameters: human, human liver microsomes, probe midazolam 15 μM (hydroxy-midazolam formation), midazolam substrate, hydroxy-midazolam formation after 30 min preincubation relative to 0 min, read-out: MBI inhibition % ctrl. [%] with MDZ
Numbers only, in %.

// known answers, use as guide
[
  {
    "Compound": "C[C@@H](NC(=O)c1cc(N2CCC3(CCCCN3)CC2)c2ncnn2c1)c1cccc(C(F)(F)F)c1F",
    "Unit Abbreviation": "%",
    "inhibition at 30 min": 97
  },
  {
    "Compound": "C[C@@H](NC(=O)c1cc(N2CCC3(CCCN3)CC2)c2ncnn2c1)c1cccc(C(F)(F)F)c1F",
    "Unit Abbreviation": "%",
    "inhibition at 30 min": 106
  },
  {
    "Compound": "C[C@@H](NC(=O)c1cc(N2CCC(N3C[C@@H](O)C[C@@H]3C)CC2)c2ncnn2c1)c1cccc(C(F)F)c1F",
    "Unit Abbreviation": "%",
    "inhibition at 30 min": 79
  },
  {
    "Compound": "C[C@@H](NC(=O)c1cc(N2CCC(O)(C3CCCN3)CC2)c2ncnn2c1)c1cccc(C(F)F)c1F (single isomer, unassigned) [Example E38a]",
    "Unit Abbreviation": "%",
    "inhibition at 30 min": 94
  },
  {
    "Compound": "C[C@@H](NC(=O)c1cc(N2CCC(N3CCCC(C)(O)C3)CC2)c2ncnn2c1)c1cccc(C(F)(F)F)c1F (single isomer, unassigned) [Example E47a]",
    "Unit Abbreviation": "%",
    "inhibition at 30 min": 97
  }
]

Give one value of inhibition at 30 min per listed compound.
1. C[C@@H](NC(=O)c1cc([C@H]2CC[C@H](N3CCC[C@H](O)C3)CC2)c2nncn2c1)c1cccc(C(F)F)c1F
2. C[C@@H](NC(=O)c1cc(N2CCC3(CCCN3C)CC2)c2ncnn2c1)c1cccc(C(F)(F)F)c1F

**Result**
1: 93; 2: 90

---

- System Tested: SOS1 and KRAS G12D (Homo sapiens (Human), UniProt Q07889)
- Procedure Summary: KRAS::SOS1 AlphaScreen binding assay (KRAS G12D)
- Run Parameters: average of at least two measurements
Field: IC50. Provide a value for each of the compounds that follow.
Answers are plain numbers, in nM.

[
  {
    "Compound": "C[C@@H](NC(=O)c1cc(N2CCC3(CCCN3C)CC2)c2nncn2c1)c1cccc(C(F)(F)F)c1F",
    "IC50, nM": 22
  }
]

Give one value of IC50 per listed compound.
1. C[C@@H](NC(=O)c1cc(N2CCC(NC3COCC3O)CC2)c2ncnn2c1)c1cccc(C(F)(F)F)c1F (single isomer, unassigned) [Example trans-E42a]
2. C[C@@H](NC(=O)c1cc(N2CCC(N3CCCC3)CC2)c2ncnn2c1)c1cccc(C(F)(F)F)c1F
3. C[C@@H](NC(=O)c1cc(N2CCC(NC3CCCC3(C)O)CC2)c2ncnn2c1)c1cccc(C(F)(F)F)c1F (single isomer, unassigned) [Example trans-E53b]
4. C[C@@H](NC(=O)c1cc(N2CCC(N3CCC[C@H]3CO)CC2)c2ncnn2c1)c1cccc(C(C)(F)F)c1F
5. C[C@@H](NC(=O)c1cc(N2CCC(N3C[C@@H](O)C4(CC4)C3)CC2)c2ncnn2c1)c1cccc(C(F)(F)F)c1F

**Result**
26
60
35
32
51

---

- System Tested: CYP3A4 (Homo sapiens (Human))
- Procedure Summary: Mechanism-based inhibition of CYP3A4 assay (MBI 3A4)
- Type: in vitro ADME
- Run Parameters: human, human liver microsomes, probe midazolam 15 μM (hydroxy-midazolam formation), midazolam substrate, hydroxy-midazolam formation after 30 min preincubation relative to 0 min, read-out: MBI inhibition % ctrl. [%] with MDZ
Measurement Label: inhibition at 30 min (%)
Answers are plain numbers, in %.

// known answers, use as guide
[
  {
    "Compound": "CC(C)N1CC=C(c2cc(C(=O)N[C@H](C)c3cccc(C(F)(F)F)c3F)cn3cnnc23)CC1 [Example E83]",
    "inhibition at 30 min / %": 86
  },
  {
    "Compound": "C[C@@H](NC(=O)c1cc(N2CCC(NC3COCC3O)CC2)c2ncnn2c1)c1cccc(C(F)(F)F)c1F (single isomer, unassigned) [Example cis-E41b]",
    "inhibition at 30 min / %": 95
  },
  {
    "Compound": "C[C@@H](NC(=O)c1cc(N2CCC(N3C[C@@H](O)[C@@H]3C)CC2)c2ncnn2c1)c1cccc(C(F)(F)F)c1F [Example E32]",
    "inhibition at 30 min / %": 92
  },
  {
    "Compound": "C[C@H](O)CNC1CCN(c2cc(C(=O)N[C@H](C)c3cccc(C(F)(F)F)c3F)cn3ncnc23)CC1 [Example E40]",
    "inhibition at 30 min / %": 75
  },
  {
    "Compound": "C[C@@H](NC(=O)c1cc(N2CCC(NC3COCC3O)CC2)c2ncnn2c1)c1cccc(C(F)F)c1F (single isomer, unassigned) [Example cis-E16a]",
    "inhibition at 30 min / %": 92
  }
]

Give one value of inhibition at 30 min per listed compound.
1. C[C@@H](NC(=O)c1cc(N2CCC3CCNC3C2)c2ncnn2c1)c1cccc(C(F)(F)F)c1F (single isomer, unassigned) [Example cis-E52b]
2. C[C@@H](NC(=O)c1cc([C@H]2CC[C@H](N3C[C@H](F)C[C@@H]3CO)CC2)c2ncnn2c1)c1cccc(C(F)F)c1F [Example E60]
3. C[C@@H](NC(=O)c1cc(N2CCC(N3CC[C@@H](O)C3)CC2)c2ncnn2c1)c1cccc(C(F)F)c1F [Example E2]
4. C[C@@H](NC(=O)c1cc(N2CCC3(CCCN3C)CC2)n2ncnc2c1)c1cccc(C(F)(F)F)c1F [Example E86]
5. C[C@@H](NC(=O)c1cc(N2CC3CCC(C2)N3C)c2nncn2c1)c1cccc(C(F)(F)F)c1F [Example E76]

**Result**
[98, 90, 95, 96, 84]

Give one value of inhibition at 30 min per listed compound.
1. C[C@@H]1[C@H](O)CN1C1CCN(c2cc(C(=O)N[C@H](C)c3cccc(C(F)(F)F)c3F)cn3ncnc23)CC1 [Example E25]
2. CO[C@@H]1CCN(C2CCN(c3cc(C(=O)N[C@H](C)c4cccc(C(F)(F)F)c4F)cn4cnnc34)CC2)C1 [Example E75]

**Result**
1. 91
2. 99

---

- System Tested: SOS1 and KRAS G12D (Homo sapiens (Human), UniProt Q07889)
- Procedure Summary: KRAS::SOS1 AlphaScreen binding assay (KRAS G12D)
- Run Parameters: average of at least two measurements
Field: IC50. Provide a value for each of the molecules that follow.
One number for each entry, in nM.

// known answers, use as guide
[
  {
    "Sample Smiles": "C[C@@H](NC(=O)c1cc(N2CC3CCC(C2)N3C)c2nncn2c1)c1cccc(C(F)(F)F)c1F",
    "Measurement": 36
  },
  {
    "Sample Smiles": "C[C@@H](NC(=O)c1cc(N2CCC(N3CC[C@@H](CO)C3)CC2)c2ncnn2c1)c1cccc(C(C)(F)F)c1F",
    "Measurement": 64
  }
]

Give one value of IC50 per listed molecule.
1. C[C@@H](NC(=O)c1cc(N2CCC(N3C[C@@H](O)C[C@@H]3C)CC2)c2ncnn2c1)c1cccc(C(F)F)c1F
2. C[C@@H](NC(=O)c1cc(N2CCC(N(C)C)CC2)c2ncnn2c1)c1cccc(C(F)(F)F)c1F

**Result**
1. 24
2. 48
